# Target Or Test System: T1, biotinylated CRH (human and mouse, not fully specified; biotinylated, position not stated)
# T1 construct: also called Biotin-CRH; biotin-labeled CRH
# T1 peptide: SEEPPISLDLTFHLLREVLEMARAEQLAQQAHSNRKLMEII
# Experimental Details: Octet BLI, biotinylated CRH on SA sensor
Measured Parameter: kon (M⁻¹ s⁻¹)
Provide the reading as a plain figure in M⁻¹ s⁻¹.

{"columns": ["Binder", "Units Text", "kon"],
 "data": [
  ["PR006150 (antibody, human IgG1, kappa, V domains shown, PTM-removal variant of PR004290) VH: EVQLVESGGVLVQPGGSLRLSCAASGFTFSSYWMTWVRQAPGKGLEWVANIKQDSSEKYYVDSVKGRFTISRDNAKNSLFLQMNSLRAEDTAVYYCARTLIFDYWGQGTLVTVSS VL: DIVMTQSPLSLPVTPGEPASISCRSSQSLLHSTGYDSLEWYLQKPGQSPQLLIYLGSNRASGVPDRFSGSGSGTDFTLKISRVEAEDVGIYYCMQTLQTPITFGQGTRLEIKR", "M⁻¹ s⁻¹", 555000],
  ["PR302341-55 (antibody, human IgG1, kappa, V domains shown, Humanized, PTM-removed variant of PR302341) VH: QVQLVQSGAEVKKPGASVKVSCKASGYTFTDYFMKWVRQAPGQRLEWMGVINPNNADIFYNQKFKGRVTITRDTSASTAYMELSSLRSEDTAVYYCARGTDRALFAYWGQGTLVTVSS VL: DVVMTQSPLSLPVTLGQPASISCRSGQSIVHSDGNTYLEWYQQRPGQSPRLLIYKVSNRFSGVPDRFSGSGSGTDFTLKISRVEAEDLGVYYCFQGSHIPWTFGGGTKVEIKR", "M⁻¹ s⁻¹", "1.2e+06"]
]}

Q: # query: kon of entry PR302309-8 (antibody, human IgG1, kappa, V domains shown, Humanized variant of PR302309) VH: QIQLVQSGSELKKPGASVKVSCKASGYTFTNYGMNWVRQAPGQGLEWMGWINTYTGEPIYTDDFKGRFVFSLDTSVSTAYLQISSLKAEDTAVYYCSRSTMITTGGVFAYWGQGTLVTVSS VL: DVVMTQSPLSLPVTLGQPASISCRSSQTIVHSDGNTYLEWYQQRPGQSPRLLIYKVSNRFSGVPDRFSGSGSGTDFTLKISRVEAEDLGVYYCFQGSHVPWTFGGGTKVEIKR
Result: 266000
